FYI, the data here is from patent US20140135310A1.

- Measured Target: dopaminergic receptors D2 (Homo sapiens)
- Sequence (P14416 whole entry): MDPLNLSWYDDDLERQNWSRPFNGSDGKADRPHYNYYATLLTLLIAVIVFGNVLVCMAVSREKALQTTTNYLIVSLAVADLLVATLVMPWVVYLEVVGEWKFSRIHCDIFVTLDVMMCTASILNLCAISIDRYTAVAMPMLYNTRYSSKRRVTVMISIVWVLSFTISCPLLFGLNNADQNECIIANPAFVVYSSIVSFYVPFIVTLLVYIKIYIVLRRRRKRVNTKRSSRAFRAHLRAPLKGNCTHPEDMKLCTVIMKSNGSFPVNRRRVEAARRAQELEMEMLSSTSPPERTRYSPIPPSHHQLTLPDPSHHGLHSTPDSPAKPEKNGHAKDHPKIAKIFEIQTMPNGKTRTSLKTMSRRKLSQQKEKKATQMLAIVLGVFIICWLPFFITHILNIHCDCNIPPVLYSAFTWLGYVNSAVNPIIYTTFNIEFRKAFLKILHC
- Measurement Description: Radioligand binding assay, dopaminergic D2 receptors
- Experimental Setup: binding assay, test compound 1×10^−6 M
Test Readout: inhibition at 1 µM (%)

[[record]]
compound = "O=S(=O)(NCC1CN(CCCc2noc3cc(F)ccc23)C1)c1ccc2ccccc2c1 [Compound 134]"
reading_unit = "%"
obs_value = 96

[[record]]
compound = "O=S(=O)(NCC1CCN(CCOc2cccc3ccccc23)C1)c1ccc2ccccc2c1 (stereo not drawn) [Compound 124]"
reading_unit = "%"
obs_value = 94

[[record]]
compound = "O=S(=O)(NC1CN(CCOc2cccc3[nH]ccc23)C1)c1ccc(F)cc1 [Compound 46]"
reading_unit = "%"
obs_value = 93

[[record]]
compound = "O=S(=O)(N[C@H]1CCN(CCCc2noc3cc(F)ccc23)C1)c1cc2ccc(Cl)cc2s1 [Compound 199]"
reading_unit = "%"
obs_value = 96

[[record]]
compound = "O=S(=O)(N[C@@H]1CCN(CCCc2noc3cc(F)ccc23)C1)c1cc2ccc(Cl)cc2s1 [Compound 198]"
reading_unit = "%"
obs_value = 99

[[record]]
compound = "O=S(=O)(NC1CCN(CCCc2noc3cc(F)ccc23)C1)c1cccc(C(F)(F)F)c1 (stereo not drawn) [Compound 15]"
reading_unit = "%"
obs_value = 75

[[record]]
compound = "O=S(=O)(NCC1CCN(CCCc2noc3cc(F)ccc23)C1)c1ccc2c(c1)OCO2 (stereo not drawn) [Compound 235]"
reading_unit = "%"
obs_value = 31

[[record]]
compound = "Cn1ccc2cc(S(=O)(=O)NCC3CN(CCOc4cccc5c4OCCO5)C3)ccc21 [Compound 187]"
reading_unit = "%"
obs_value = 56

[[record]]
compound = "O=S(=O)(NCC1CCN(CCOc2cccc3c2OCCO3)C1)c1cccs1 (stereo not drawn) [Compound 302]"
reading_unit = "%"
obs_value = 34

[[record]]
compound = "O=S(=O)(NCC1CCN(CCOc2cccc3c2OCCO3)C1)c1ccc(F)cc1 (stereo not drawn) [Compound 300]"
reading_unit = "%"
obs_value = 35

[[record]]
compound = "O=S(=O)(NC1CCN(CCCc2noc3cc(F)ccc23)CC1)c1cc2ccccc2s1 [Compound 324]"
reading_unit = "%"
obs_value = 77

[[record]]
compound = "O=S(=O)(NC1CCN(CCCc2noc3cc(F)ccc23)C1)c1ccc(Cl)s1 (stereo not drawn) [Compound 22]"
reading_unit = "%"
obs_value = 85

[[record]]
compound = "O=S(=O)(NC1CN(CCOc2cccc3[nH]ccc23)C1)c1ccccc1 [Compound 45]"
reading_unit = "%"
obs_value = 53

[[record]]
compound = "O=S(=O)(NCC1CCN(CCOc2cccc3c2OCCO3)C1)c1ccc(Cl)s1 (stereo not drawn) [Compound 316]"
reading_unit = "%"
obs_value = -2

[[record]]
compound = "Cc1ccc2sc(S(=O)(=O)N[C@H]3CCN(CCCc4noc5cc(F)ccc45)C3)cc2c1 [Compound 229]"
reading_unit = "%"
obs_value = 101

[[record]]
compound = "COc1ccc2cc(S(=O)(=O)N[C@H]3CCN(CCCc4noc5cc(F)ccc45)C3)ccc2c1 [Compound 231]"
reading_unit = "%"
obs_value = 95

[[record]]
compound = "O=S(=O)(NCC1CCN(CCCc2noc3cc(F)ccc23)C1)c1ccc2c(c1)CCO2 (stereo not drawn) [Compound 256]"
reading_unit = "%"
obs_value = 37

[[record]]
compound = "O=S(=O)(NC1CCN(CCCc2c[nH]c3ccc(Cl)cc23)C1)c1cccc(Cl)c1 (stereo not drawn) [Compound 84]"
reading_unit = "%"
obs_value = 89

[[record]]
compound = "CC(C)(C)c1ccc(S(=O)(=O)NC2CCN(CCCc3noc4cc(F)ccc34)CC2)cc1 [Compound 328]"
reading_unit = "%"
obs_value = 64

[[record]]
compound = "O=S(=O)(NCC1CN(CCOc2cccc3c2OCCO3)C1)c1ccc(F)cc1 [Compound 182]"
reading_unit = "%"
obs_value = 33

[[record]]
compound = "O=S(=O)(NC1CCN(CCCc2noc3cc(F)ccc23)C1)c1cnc2ccccn12 (stereo not drawn) [Compound 30]"
reading_unit = "%"
obs_value = 62

[[record]]
compound = "O=S(=O)(NC1CN(CCOc2cccc3[nH]ccc23)C1)c1cccc2ccccc12 [Compound 49]"
reading_unit = "%"
obs_value = 99

[[record]]
compound = "COc1ccc2cc(S(=O)(=O)N[C@@H]3CCN(CCCc4noc5cc(F)ccc45)C3)ccc2c1 [Compound 230]"
reading_unit = "%"
obs_value = 99

[[record]]
compound = "O=S(=O)(NC1CCN(CCOc2cccc3[nH]ccc23)C1)c1cccc2ccccc12 (stereo not drawn) [Compound 53]"
reading_unit = "%"
obs_value = 74

[[record]]
compound = "CC1(C)Cc2cccc(OCCN3CCC(CNS(=O)(=O)c4cccc(O)c4)C3)c2O1 (stereo not drawn) [Compound 113]"
reading_unit = "%"
obs_value = 47

[[record]]
compound = "Cc1cccc(S(=O)(=O)NC2CCN(CCCc3c[nH]c4ccc(F)cc34)C2)c1 (stereo not drawn) [Compound 78]"
reading_unit = "%"
obs_value = 89

[[record]]
compound = "O=S(=O)(NC1CCN(CCOc2cccc3[nH]ccc23)C1)c1ccccc1 (stereo not drawn) [Compound 51]"
reading_unit = "%"
obs_value = 54

[[record]]
compound = "O=S(=O)(NC1CCN(CCCc2noc3cc(F)ccc23)C1)c1ccc2cc(Cl)ccc2c1 (stereo not drawn) [Compound 23]"
reading_unit = "%"
obs_value = 100

[[record]]
compound = "Cc1c(S(=O)(=O)N[C@@H]2CCN(CCCc3noc4cc(F)ccc34)C2)sc2ccc(Cl)cc12 [Compound 204]"
reading_unit = "%"
obs_value = 98

[[record]]
compound = "O=S(=O)(NC1CCN(CCCc2noc3cc(F)ccc23)C1)c1cccc(Cl)c1 (stereo not drawn) [Compound 9]"
reading_unit = "%"
obs_value = 88

[[record]]
compound = "O=S(=O)(NCC1CN(CCOc2cccc3c2OCCO3)C1)c1ccc2ccccc2c1 [Compound 177]"
reading_unit = "%"
obs_value = 13

[[record]]
compound = "CCCc1ccc(S(=O)(=O)NCC2CN(CCCc3noc4cc(F)ccc34)C2)cc1 [Compound 157]"
reading_unit = "%"
obs_value = 81

[[record]]
compound = "O=S(=O)(NC1CCN(CCCc2c[nH]c3ccc(Cl)cc23)C1)c1ccc2ccccc2c1 (stereo not drawn) [Compound 87]"
reading_unit = "%"
obs_value = 63

